Cited source for all entries: the supplement of paper PMC10065799

Below, each of the sequences is paired with its reported phosphorylation enrichment value.
assay target: EPHB1 (UniProt P54762)
Sequence (P54762 whole entry, looked up): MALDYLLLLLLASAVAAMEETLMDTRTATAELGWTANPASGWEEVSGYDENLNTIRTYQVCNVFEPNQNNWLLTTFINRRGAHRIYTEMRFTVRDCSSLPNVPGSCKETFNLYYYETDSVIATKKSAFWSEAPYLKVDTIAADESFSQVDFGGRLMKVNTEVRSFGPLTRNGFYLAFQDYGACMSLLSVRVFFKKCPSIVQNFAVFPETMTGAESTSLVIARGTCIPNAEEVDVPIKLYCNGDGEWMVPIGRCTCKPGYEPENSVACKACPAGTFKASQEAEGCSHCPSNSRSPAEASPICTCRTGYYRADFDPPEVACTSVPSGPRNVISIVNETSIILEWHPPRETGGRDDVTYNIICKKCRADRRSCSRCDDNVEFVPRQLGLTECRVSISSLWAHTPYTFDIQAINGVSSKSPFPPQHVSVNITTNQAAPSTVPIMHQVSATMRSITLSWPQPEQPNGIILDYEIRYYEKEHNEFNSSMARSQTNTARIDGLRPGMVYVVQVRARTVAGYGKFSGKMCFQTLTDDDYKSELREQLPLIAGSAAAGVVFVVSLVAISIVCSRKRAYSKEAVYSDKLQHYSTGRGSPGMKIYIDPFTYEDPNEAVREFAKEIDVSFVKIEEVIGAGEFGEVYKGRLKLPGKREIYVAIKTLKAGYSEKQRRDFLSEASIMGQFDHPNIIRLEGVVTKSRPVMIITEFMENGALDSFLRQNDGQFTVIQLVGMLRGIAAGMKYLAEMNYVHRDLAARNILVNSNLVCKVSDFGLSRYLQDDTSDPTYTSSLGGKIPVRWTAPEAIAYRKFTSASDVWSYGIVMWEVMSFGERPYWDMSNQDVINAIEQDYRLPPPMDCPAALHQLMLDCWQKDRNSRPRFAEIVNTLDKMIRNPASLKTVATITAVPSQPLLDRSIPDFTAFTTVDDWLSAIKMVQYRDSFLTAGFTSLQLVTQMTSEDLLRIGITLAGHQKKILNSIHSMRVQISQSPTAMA
method description: phosphorylation enrichment, bacterial display (enrichment ratio); higher = better substrate or ligand; peptides without Tyr show the background;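 further: 11-residue human phosphosite peptides and single-mutation variants displayed on the E. coli surface, counted by deep sequencing, each peptide's frequency after selection divided by its frequency in the unselected input library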;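 further: frequency after pTyr selection over input frequency; kinase dosed for 20-30% of maximal phosphorylation in three min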
Answer field: number only, no words.

Here are 5 sequences together with their reported answers.
Recorded phosphorylation enrichment for ELTTCYRKKCC [CCBE1_Y70] with EPHB1 (UniProt P54762), please?
0.441

Recall the recorded phosphorylation enrichment for EVASVYESFQP [MAVS_Y92_Q93E_YF] with EPHB1 (UniProt P54762) and state it.
1.1

What reported phosphorylation enrichment corresponds to VNYQPYRKHKY [TEX37_Y28_D24N] on EPHB1 (UniProt P54762)?
0.367

Report phosphorylation enrichment for IRQGHYESLKE [MTR_Y921_D919G] tested on EPHB1 (UniProt P54762).
0.392

I'm curious: which phosphorylation enrichment was measured for ARAFIYAIIPA [ACKtide_2014] tested on EPHB1 (UniProt P54762)?
5.28

Continuing:
Query the reported phosphorylation enrichment for EPHB1 (UniProt P54762); item: DIDKIYIRTGI [PIK3CA_Y355_V356I]
0.585

Record GEFFRYLAEVA [YWHAG_Y133_D129E_YF] : what is its phosphorylation enrichment with EPHB1 (UniProt P54762)?
0.46

Give recorded phosphorylation enrichment with EPHB1 (UniProt P54762) for the following sequence: ADDSYYTARSA [ZAP70_Y493]
0.484

Provide value of phosphorylation enrichment for this record tested with EPHB1 (UniProt P54762): SSFSRYIMMPN [LEF1_Y114_G113R_YF]
0.471

Request: phosphorylation enrichment, test system EPHB1 (UniProt P54762), entry VYLGAYDRFLP [SLC22A5_Y486]
1.82

What phosphorylation enrichment appears in the records for this sequence with EPHB1 (UniProt P54762)? PTKNDYWAMLA [WWOX_Y287]
1.78

---

assay target: Hck (UniProt P08631)
Sequence (P08631 whole entry, looked up): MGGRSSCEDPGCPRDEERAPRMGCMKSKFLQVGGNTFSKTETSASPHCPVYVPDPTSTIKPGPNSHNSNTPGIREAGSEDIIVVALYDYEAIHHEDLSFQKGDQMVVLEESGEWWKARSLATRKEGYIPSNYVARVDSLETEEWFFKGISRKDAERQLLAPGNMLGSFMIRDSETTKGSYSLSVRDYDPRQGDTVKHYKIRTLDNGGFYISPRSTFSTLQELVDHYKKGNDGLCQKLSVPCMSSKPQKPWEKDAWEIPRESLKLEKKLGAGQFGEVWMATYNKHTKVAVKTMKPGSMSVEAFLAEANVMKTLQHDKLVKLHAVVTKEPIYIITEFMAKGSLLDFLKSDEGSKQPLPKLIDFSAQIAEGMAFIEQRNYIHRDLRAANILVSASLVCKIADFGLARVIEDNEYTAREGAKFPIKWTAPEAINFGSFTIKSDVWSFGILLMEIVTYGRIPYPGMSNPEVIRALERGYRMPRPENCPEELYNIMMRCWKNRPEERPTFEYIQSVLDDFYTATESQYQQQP
method description: phosphorylation enrichment, bacterial display (enrichment ratio); higher = better substrate or ligand; peptides without Tyr show the background
Where phosphorylation enrichment equals or exceeds 0.6, the correct label is class 1; where it does not, the label is class 0.

Some entries whose results are on file:
Could you verify whether the entry ELTAKYLNFFQ [P3H4_Y181_YF] shows phosphorylation enrichment of no less than 0.6?
class 0

Is reported phosphorylation enrichment greater than or equal to 0.6 here: RKETFYILSCR [GUCY2C_Y681_T682I]
class 0

Exam item: decide whether the reported phosphorylation enrichment for STEEQYRICQV [EFHC1_Y115_R118C] is at least 0.6.
class 0

Please check the record DDHFTYSRYPW [LY75_Y888] and state if its phosphorylation enrichment is at or above 0.6.
class 1

API: above_or_equal(metric=phosphorylation enrichment, cutoff=0.6) for item VNFDFYTVNLG [GFPT1_Y367_D366Y_YF]
class 1

Continuing:
Check if phosphorylation enrichment >= 0.6 (inclusive). Item: RLRVVYPWTQR [HBB_Y36_L33R]
class 0

Determine whether this sequence has phosphorylation enrichment no lower than 0.6: DQVEQYKKELE [LMNA_Y259]
class 0

Reported phosphorylation enrichment reaches at least 0.6 for PTKNDYWAMLA [WWOX_Y287] ?
class 1

Dear colleague, could you confirm whether INNKMYDPKMN [ENPP1_Y280_D276N] has phosphorylation enrichment at or above 0.6?
class 0

Reported phosphorylation enrichment at or above 0.6? LAVNPYGPPDP
class 0
